This section presents sequences with their documented self-splicing fitness (ln) values.
experiment-notes: self-splicing fitness, log relative to wild type (ln ratio); higher = more splicing; Tetrahymena group I intron in knt gene, E. coli kanamycin selection, DiMSum; sequences stand for … in CUCUCU…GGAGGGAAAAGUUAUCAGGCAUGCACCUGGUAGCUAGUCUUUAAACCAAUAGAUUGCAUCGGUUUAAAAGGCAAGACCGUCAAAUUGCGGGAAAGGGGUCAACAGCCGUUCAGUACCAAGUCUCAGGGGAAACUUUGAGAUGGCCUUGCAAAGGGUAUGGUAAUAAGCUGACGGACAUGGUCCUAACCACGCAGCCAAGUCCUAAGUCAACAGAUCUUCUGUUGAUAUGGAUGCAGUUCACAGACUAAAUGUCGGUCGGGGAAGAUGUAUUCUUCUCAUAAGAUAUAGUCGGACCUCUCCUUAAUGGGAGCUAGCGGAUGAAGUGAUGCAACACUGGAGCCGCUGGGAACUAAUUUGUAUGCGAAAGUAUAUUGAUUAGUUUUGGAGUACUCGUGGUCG;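 further: selection with 25 µg/mL kanamycin versus none on LB agar overnight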
assay-context: 37 °C
measurement-label: self-splicing fitness (ln)

sequence-input	reported
UCGUAGCAAUAUUACGCGUG	-0.648
AGGCAGCAAUAUUACGAUCU	0.2
CUAGAGCAAUAUUACGACGC	-0.974
CCAAAGCAAUAUUACGCUUU	-2.73
GUAUAGCAAUAUUACGAUCU	0.209
GGCCAGCAAUAUUACGUAUG	-2.85
UUAUAGCAAUAUUACGUUAC	-3.56
CGCUAGCAAUAUUACGCCUG	0.152
GCGCAGCAAUAUUACGUACU	-0.505
ACCUAGCAAUAUUACGCCGG	-0.598
GUCGAGCAAUAUUACGUAAU	-0.515
GAGCAGCAAUAUUACGUGUA	-0.876
CCUAAGCAAUAUUACGCGGG	-2.68
AGGCAGCAAUAUUACGCGCG	-0.358
UUUGAGCAAUAUUACGUACG	-0.599
GUAAAGCAAUAUUACGACGG	-2.28
AUUGAGCAAUAUUACGUUUC	-2.57
GGACAGCAAUAUUACGACUU	1.19
UUAUAGCAAUAUUACGGGGA	-1.38
GCCUAGCAAUAUUACGGCGG	-2.44
CUUAAGCAAUAUUACGGCAA	-2.57
AGUCAGCAAUAUUACGAAGU	-0.0211
CCUGAGCAAUAUUACGCGGA	-1.17
AGUUAGCAAUAUUACGGUAC	-2.76
UAACAGCAAUAUUACGAGGA	-1.49
UUGGAGCAAUAUUACGUUUC	-3.44
CGUUAGCAAUAUUACGCGCA	-0.131
CCGCAGCAAUAUUACGCAAA	-2.15
